Source listed as patent US9951014B2.

target: bsNOS (Bacillus subtilis (strain 168)); test: Imidazole displacement, spectral binding constant KS; settings: WT − KS, wild-type bsNOS, Table 8
Sequence (O34453 whole entry): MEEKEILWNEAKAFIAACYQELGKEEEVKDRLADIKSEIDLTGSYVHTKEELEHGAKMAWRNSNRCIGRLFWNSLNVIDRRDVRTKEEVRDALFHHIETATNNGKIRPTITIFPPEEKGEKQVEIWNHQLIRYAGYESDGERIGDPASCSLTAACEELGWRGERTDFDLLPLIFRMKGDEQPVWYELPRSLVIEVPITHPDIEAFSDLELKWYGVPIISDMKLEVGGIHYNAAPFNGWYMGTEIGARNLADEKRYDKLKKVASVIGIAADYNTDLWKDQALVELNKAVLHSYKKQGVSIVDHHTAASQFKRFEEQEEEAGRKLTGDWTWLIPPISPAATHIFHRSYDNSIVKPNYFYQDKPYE
pKd: −log10 of the molar value.
measured.quantity: pKd

# compound, test.system, observed.value
records = [
    ("Cc1cc(N)nc(-c2ccc(CNCCc3cccc(F)c3)cc2)c1 [Compound 27]", "bsNOS (Bacillus subtilis (strain 168))", 5.06),
    ("Nc1ccc2ccc(CCNCCCc3cccc(F)c3)cc2n1 [Compound 19]", "bsNOS (Bacillus subtilis (strain 168))", 5.44),
]

----------
target: rat nNOS (Rattus norvegicus (Rat), UniProt P29476); experiment: Oxyhemoglobin NO capture assay with purified NOS; type: biochemical; conditions: Table 13; read-out: nNOS Ki
pKi: −log10 of the molar value.

# query.smiles, pKi
rows = [
    ("Cc1cc(N)nc(CCc2cccc([C@H](N)Cc3cc(C)cc(N)n3)c2)c1", 6.91),
    ("Cc1cc(N)nc(CCc2cccc([C@@H](N)Cc3cc(C)cc(N)n3)c2)c1", 6.84),
    ("Cc1ccnc(CCc2cccc([C@@H](N)Cc3cc(C)cc(N)n3)c2)c1", 6.04),
    ("Cc1ccnc(CCc2cccc([C@H](N)Cc3cc(C)cc(N)n3)c2)c1", 5.36),
]

----------
test: Plasma pharmacokinetics and brain distribution in mice; format: in vivo, male BALB/c mice; settings: male, BALB/c, mouse, po; p.o. 10 mg/kg, plasma

# molecule, AUC(0-t) / ng·h/mL
records = [
    ("CNCCN(C)c1cc(C#N)cc(CCc2cc(C)cc(N)n2)c1 [Compound 19c]", 162),
]

----------
assay: Plasma pharmacokinetics and brain distribution in mice; format: in vivo, male BALB/c mice; conditions: male, BALB/c, mouse, iv; i.v. 2 mg/kg, plasma

# molecule, unit.annotation, AUC(0-t)
measured = [
    ("CNCCN(C)c1cc(C#N)cc(CCc2cc(C)cc(N)n2)c1 [Compound 19c]", "ng·h/mL", 180),
]

----------
assay: Plasma pharmacokinetics and brain distribution in mice; type: in vivo, male BALB/c mice; conditions: male, BALB/c, mouse, po; p.o. 10 mg/kg, plasma; read-out: Tmax

# molecule, Tmax, min
rows = [
    ("CNCCN(C)c1cc(C#N)cc(CCc2cc(C)cc(N)n2)c1 [Compound 19c]", 15),
]

----------
target: bovine eNOS (Bos taurus (Bovine)); assay: Oxyhemoglobin NO capture assay with purified NOS; format: biochemical; conditions: Table 9; read-out: Ki eNOS
pKi: −log10 of the molar value.
Rule: YES for pKi not less than 5, NO for anything less.

# compound, class.name
rows = [
    ("Cc1cc(N)nc(CCc2cc(F)cc(N3CCNCC3)c2)c1 [Compound 23h]", "YES"),
    ("Cc1cc(N)nc(CCc2cc(F)cc(N(C)CCNC3CC3)c2)c1 [Compound 23c]", "YES"),
    ("CNCCN(C)c1cc(C#N)cc(CCc2cc(C)cc(N)n2)c1 [Compound 19c]", "NO"),
]

----------
target: bsNOS (Bacillus subtilis (strain 168)); experiment: Imidazole displacement, spectral binding constant KS; conditions: KS (bsNOS), Table 5
pKd: −log10 of the molar value.
Measured pKd, listed per entry for reference.
measured.quantity: pKd

# query.smiles, measured.quantity, observed.value
records = [
    ("Nc1ccc2cc(CCNCc3cccc(F)c3)ccc2n1", "pKd", 4.02),
    ("Cc1cc(N)nc(CCc2cc(F)cc(NCc3ccc(F)cc3)c2)c1", "pKd", 4.54),
    ("CNCCN(C)c1cccc(Cc2cc(C)cc(N)n2)n1", "pKd", 4.03),
    ("Cc1cc(N)nc(-c2ccc(CNCc3cccc(F)c3)cc2)c1", "pKd", 5.82),
    ("Nc1ccc2ccc(CNCCCc3cccc(F)c3)cc2n1", "pKd", 5.49),
]

----------
biological target: rat nNOS (Rattus norvegicus (Rat), UniProt P29476); test: Oxyhemoglobin NO capture assay with purified NOS; assay type: biochemical
pKi: −log10 of the molar value.
measured.quantity: pKi

# query.smiles, measured.quantity, observed.value
records = [
    ("Cc1cc(N)nc(-c2ccc(CNCCc3cccc(F)c3)cc2)c1", "pKi", 6.28),
]

----------
molecular target: bovine eNOS (Bos taurus (Bovine)); assay: Oxyhemoglobin NO capture assay with purified NOS; type: biochemical; settings: Table 13; read-out: eNOS Ki

# query.smiles, unit.annotation, Ki
rows = [
    ("Cc1ccnc(CCc2cccc([C@@H](N)Cc3cc(C)cc(N)n3)c2)c1", "µM", 328),
]

----------
Measured pKi, listed per entry for reference.
biological target: rat nNOS (Rattus norvegicus (Rat)); experiment: Oxyhemoglobin NO capture assay with purified NOS; format: biochemical; conditions: Table 9; read-out: Ki Rat nNOS
pKi: −log10 of the molar value.
measured.quantity: pKi

# molecule, test.system, observed.value
records = [
    ("CCNCCN(C)c1cc(F)cc(CCc2cc(C)cc(N)n2)c1 [Compound 23b]", "rat nNOS (Rattus norvegicus (Rat))", 7.49),
    ("Cc1cc(N)nc(CCc2cc(F)cc(NCCN(C)C)c2)c1 [Compound 23a]", "rat nNOS (Rattus norvegicus (Rat))", 7.15),
    ("CNCCN(C)c1cc(F)cc(CCc2cc(C)cc(N)n2)c1 [Compound 19b]", "rat nNOS (Rattus norvegicus (Rat))", 7.47),
]
